Test system: c-Abl (mouse);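 also: 11-residue human phosphosite peptides and single-mutation variants displayed on the E. coli surface, counted by deep sequencing, each peptide's frequency after selection divided by its frequency in the unselected input library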;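 also: frequency after pTyr selection over input frequency; kinase dosed for 20-30% of maximal phosphorylation in three min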
Experiment: phosphorylation enrichment, bacterial display (enrichment ratio); higher = better substrate or ligand; peptides without Tyr show the background
Catalogue of phosphorylation enrichment readings, one per entry.
Please give only the number in your answer, with no unit.

RESIDUE_STRING | STUDY_SYSTEM | phosphorylation enrichment
QEIATYPRLLE [KRT14_Y415_R416P] | c-Abl (mouse) | 1.07
GEIQEYGAPSD [ABCC1_Y1508] | c-Abl (mouse) | 0.757

What phosphorylation enrichment value was documented for this sequence, CSTIHYNYMCN [TP53_Y234_T230S] ?
0.411

// returns reported phosphorylation enrichment for input IPPRRYFRSGV [STAMBP_Y36]
0.717
